# measured_on: Glycogen synthase kinase-3 (Homo sapiens, UniProt P49840+P49841)
# assay_procedure: Inhibition of GSK3alpha/beta in pig brain
# Set-up: species or system Sus scrofa
# experimental_parameters: target entry is the homologue from another species
Measured IC50 values are reported for all entries that follow.

Would you please look over these solved cases?
- structure_string: "N#Cc1cc(I)c2[nH]c3c(c2c1)CC(=O)Nc1cccnc1-3"
  IC50: "120 nM"
- structure_string: "N#Cc1ccc2[nH]c3c(c2c1)CC(=O)Nc1ccncc1-3"
  IC50: "21 nM"
- structure_string: "O=C1Cc2c([nH]c3ccc(F)cc23)-c2cnccc2N1"
  IC50: "51 nM"
- structure_string: "O=C1Cc2c([nH]c3ccccc23)-c2ncccc2N1"
  IC50: "800 nM"
- structure_string: "O=C1Cc2c([nH]c3ccc(Cl)cc23)-c2cnccc2N1"
  IC50: "18 nM"

// fetch Glycogen synthase kinase-3 (Homo sapiens, UniProt P49840+P49841) IC50 for `N#Cc1ccc2c(c1)-c1[nH]c3ccc(C#N)cc3c1CC(=O)N2`
28 nM

Param item: `Cn1c2c(c3ccccc31)CC(=O)Nc1ccncc1-2`
400 nM

Queued: `N#Cc1ccc2[nH]c3c(c2c1)CC(=O)Nc1cccnc1-3`
8 nM
